All figures here come from patent US8741947B2.

Target: Chromaffin Granule Membrane V-ATPase
Assay: V-ATPase inhibitory assay, chromaffin granule membrane
Format: biochemical
Settings: Chromaffin Granule Membrane V-ATPase (bovine); read-out: V-ATPase (Ki, nM) CGM
Protocol: The V-ATPase inhibitory assays were performed on representative compound(s) of the present invention using non-mammalian or mammalian (e.g., bovine cromaffin granule) V-ATPases as described by Bowman et al., Proc. Natl. Acad. Sci. USA, 85, 7972-7976, 1988.
Let's look at some compounds and their measured Ki.
OBSERVED_PROPERTY: Ki (nM)

COMPOUND	TESTED_ON	COMPARISON_SYMBOL	OBSERVED_MEASUREMENT
COC(=O)C(C)(C)C(O)C(C)C(=O)C(C)(C)C=CC(=O)NC(C(O)C(C)C)C(O)C(C)C=C(C)C(O)C(C)CCC(O)C(C)C(=O)NC(C(C)O)C1OC(=O)C(C(O)C(=O)O)NC(=O)C=CC=CCCC=CC=CCC2CC(C)CC(CC(O)C(C)C(O)C(C)=CC(C)C(O)C(C)=CCC(OC(=O)CC(O)C(=O)O)C1C)O2 (stereo not drawn) [Chondropsin A, chondropsin A]	Chromaffin Granule Membrane V-ATPase	>	10000
C/C=C/[C@H]1O[C@@](O)([C@@H](C)[C@H](O)[C@H](C)[C@H]2OC(=O)/C(OC)=C/C(C)=C/[C@@H](C)[C@@H](O)[C@@H](CC)[C@@H](O)[C@H](C)C/C(C)=C/C=C/[C@@H]2OC)C[C@@H](O[C@H]2C[C@@H](O)[C@H](OC(N)=O)[C@@H](C)O2)[C@@H]1C [Concanamycin A, concanamycin A, reference compound]	Chromaffin Granule Membrane V-ATPase	=	6
CC/C=C\C=C/C(=O)N/C=C/C[C@H]1C[C@@H](O)[C@@H](C)C/C=C/Cc2cccc(O)c2C(=O)O1 [Salicylihalamide A, salicylihalamide A, reference compound]	Chromaffin Granule Membrane V-ATPase	=	6.5
